- experimental protocol: Pharmacokinetics in mice (i.v. and p.o.)
- Format: in vivo, male CD-1 mice
- test conditions: male, CD-1, mouse, plasma, po, 5 mg/kg; read-out: % F

>  <substance smiles>
CC(C)(C)C(=O)n1nc(C2CCNCC2)c(F)c1NCc1ccc(Cl)s1

>  <bioavailability / %>
70

$$$$

----------
- target or system: Human KLKB1 (Homo sapiens (Human))
- Sequence (P03952 391-638 limits assumed): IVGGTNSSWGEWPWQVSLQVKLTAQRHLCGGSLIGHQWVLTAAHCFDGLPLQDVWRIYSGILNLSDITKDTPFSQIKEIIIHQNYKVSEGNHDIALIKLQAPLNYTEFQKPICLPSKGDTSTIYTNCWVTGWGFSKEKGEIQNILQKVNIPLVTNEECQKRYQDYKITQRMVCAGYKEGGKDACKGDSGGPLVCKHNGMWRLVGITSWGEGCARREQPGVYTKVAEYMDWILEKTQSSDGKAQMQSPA
- Sequence (P03952 20-390 partner limits assumed): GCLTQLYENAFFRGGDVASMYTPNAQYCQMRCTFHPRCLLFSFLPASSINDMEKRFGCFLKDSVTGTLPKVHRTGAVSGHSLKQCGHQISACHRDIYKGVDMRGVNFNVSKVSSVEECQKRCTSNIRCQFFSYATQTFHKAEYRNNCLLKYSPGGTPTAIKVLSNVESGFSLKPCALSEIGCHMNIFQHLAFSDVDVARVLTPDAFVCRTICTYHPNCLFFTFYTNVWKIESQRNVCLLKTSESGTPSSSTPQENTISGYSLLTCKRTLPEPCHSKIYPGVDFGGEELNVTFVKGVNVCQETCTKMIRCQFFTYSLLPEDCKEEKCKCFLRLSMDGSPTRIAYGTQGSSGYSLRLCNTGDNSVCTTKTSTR
- experimental protocol: KLKB1 kallikrein activity inhibition assay (chromogenic substrate S-2302)
- Format: biochemical
- test conditions: Table C
assay readout: IC50

>  <substance smiles>
CCCn1nc(-c2ccccn2)nc1NCc1ccc(F)cc1

>  <assay readout>
IC50

>  <assay value>
> 100 µM

$$$$
>  <substance smiles>
O=C(c1ccc(Cl)cc1)n1nc(-c2ccccn2)nc1NCc1ccccc1

>  <assay readout>
IC50

>  <assay value>
0.1 to 1 µM

$$$$
>  <substance smiles>
COc1ccc(CNc2nc(-c3ccccn3)nn2C(=O)c2cccs2)cc1

>  <assay readout>
IC50

>  <assay value>
> 100 µM

$$$$
>  <substance smiles>
O=C(c1ccccc1)n1nc(-c2cccnc2)nc1NCc1ccc(F)cc1

>  <assay readout>
IC50

>  <assay value>
0.1 to 1 µM

$$$$
>  <substance smiles>
O=C(CCc1ccccc1)n1nc(-c2cccnc2)nc1NCc1ccc(F)cc1

>  <assay readout>
IC50

>  <assay value>
10 to 100 µM

$$$$
>  <substance smiles>
CC(C)(C)C(=O)n1nc(-c2ccco2)nc1NCc1ccc(F)cc1

>  <assay readout>
IC50

>  <assay value>
10 to 100 µM

$$$$
>  <substance smiles>
O=C(c1ccsc1)n1nc(-c2ccccn2)nc1NCc1ccc(F)cc1

>  <assay readout>
IC50

>  <assay value>
0.1 to 1 µM

$$$$
>  <substance smiles>
O=C(c1cccs1)n1nc(-c2ccncc2)nc1NCc1ccc(F)cc1

>  <assay readout>
IC50

>  <assay value>
> 100 µM

$$$$
>  <substance smiles>
CC(C)CC(=O)n1nc(-c2ccccn2)nc1NCc1ccccc1

>  <assay readout>
IC50

>  <assay value>
10 to 100 µM

$$$$
